method.description: cell viability in Huh7 cells, primary screen, cytotoxicity control for HCV replication inhibitor project, CellTiter-Glo luminescence, basal, 48 h (AID 1143);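 note: Huh7 hepatoma cells carrying a hepatitis C replication reporter with no stimulus; test concentration not given here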
assay.setup: Huh7 HCV replicon, higher = more signal, called active from +8 up or from −8 down
Activity calls are given as the source filed them.
measured.parameter: z-score

compound	result
CC(C)=CCCC(C)=CC(O)C1C=CC2C(=O)N(c3ccccc3)C(=O)C2N1Nc1ccccc1 (stereo unspecified)	0.311 (inactive)

Turning to the following compound.
q: Determine from records and report z-score for `CC(C)C(=C=CC[C@H](O)c1cccc(OCCO)c1)C[C@H](O)COCc1ccccc1`
a: -0.33 (inactive)

----------
target.system: Pro-neuregulin-1, membrane-bound isoform (Homo sapiens) (UniProt Q02297)
Sequence (Q02297 whole entry, looked up, canonical isoform): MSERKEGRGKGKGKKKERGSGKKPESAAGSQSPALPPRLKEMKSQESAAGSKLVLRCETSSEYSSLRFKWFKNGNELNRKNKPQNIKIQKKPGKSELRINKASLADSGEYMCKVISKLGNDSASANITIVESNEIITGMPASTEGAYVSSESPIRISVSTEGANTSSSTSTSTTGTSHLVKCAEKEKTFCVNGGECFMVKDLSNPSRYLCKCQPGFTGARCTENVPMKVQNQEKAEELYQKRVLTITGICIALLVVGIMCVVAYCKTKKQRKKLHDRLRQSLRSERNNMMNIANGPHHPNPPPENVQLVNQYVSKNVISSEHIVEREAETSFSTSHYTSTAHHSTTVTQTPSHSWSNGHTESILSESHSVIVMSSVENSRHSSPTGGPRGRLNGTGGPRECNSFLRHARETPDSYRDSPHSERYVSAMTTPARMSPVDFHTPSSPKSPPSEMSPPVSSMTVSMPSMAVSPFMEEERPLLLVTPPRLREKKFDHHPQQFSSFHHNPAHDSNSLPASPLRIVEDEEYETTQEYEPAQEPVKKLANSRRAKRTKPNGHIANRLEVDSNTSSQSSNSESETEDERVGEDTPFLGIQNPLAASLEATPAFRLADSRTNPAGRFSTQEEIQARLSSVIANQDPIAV
method.description: NRG1 binders on small-molecule microarrays, primary screen, psychiatric disease protein project, biochemical, small-molecule microarray, fluorescence 635/667 (AID 1075);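 note: score combines 667 nm spot fluorescence with signal to noise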
assay.setup: NRG1 binding, 635 nm fluorescence, higher = more signal
Recorded composite z-score for the following compounds
Please give the numeric answer without any surrounding text.

compound	measured.parameter	readout.number
COC(=O)[C@@]1(Cc2ccc(OC)cc2)[C@H]2c3cc(C(=O)N4CCCC4)n(Cc4cc(F)cc5c4OCOC5)c3C[C@H]2CN1C(=O)c1ccccc1	composite z-score	2.29

q: Determine from records and report composite z-score for `Cc1ccc(S[C@]2(C(=O)NCCN3CCOCC3)CC(=O)N(Cc3cc(C(F)(F)F)cc(C(F)(F)F)c3)[C@@H]2c2ccc(CO)cc2I)cc1`
a: 1.98

----------
method.description: PSAC antagonists in infected red cells, primary screen, cell-based, P. falciparum Indochina, OD700, 1 h (AID 1154)
assay.setup: P. falciparum Indochina infected RBC osmotic lysis, called active from +8 up or from −8 down
Activity calls are given as the source filed them.
Valid outcomes are listed here; reply with one: T for active, F for inactive

compound	category.label
C=CC(=C)C1=CCO[C@@H]1[C@H]1CCCN1S(=O)(=O)c1ccccc1[N+](=O)[O-]	F

q: Which outcome was assigned to N#Cc1ccc(NN2C(C(O)C3CCCCC3)C=CC3C(=O)N(c4ccccc4)C(=O)C32)cc1 (stereo not given) in this test?
a: T

q: Which outcome was assigned to `COC(=O)[C@@]1(Cc2ccccc2)[C@H]2c3cc(C(=O)N(C)C)n(Cc4cc(C)n(C)n4)c3C[C@H]2CN1C(=O)c1ccccc1` in this test?
a: F

q: Which outcome was assigned to O=C1OCCC=C[C@H]2OC34C=CCN(Cc5ccccc5)C(=O)[C@H]3N(CCCCCCO)C(=O)[C@@H]4C12 (stereo not given in full) in this test?
a: F

q: Which outcome was assigned to `COC(=O)[C@@]1(Cc2ccc(OC)cc2)[C@H]2c3cc(C(=O)N(C)C)n(Cc4c(OC)[nH]cc(C)c4=O)c3C[C@H]2CN1C(=O)c1ccccc1` in this test?
a: F

q: Which outcome was assigned to `COCCOC(=O)N1C(=O)[C@@]2(c3cc(C#CCC(C(=O)OC)C(=O)OC)ccc31)[C@H](c1ccccc1OCCO)N1[C@H](c3ccccc3)[C@H](c3ccccc3)OC(=O)[C@H]1[C@@H]2C(N)=O` in this test?
a: F

q: Which outcome was assigned to `O=C(O)[C@@]1(Cc2ccccc2)N=C(c2ccc(OCCCO)cc2)O[C@H]1c1ccccc1` in this test?
a: F

q: Which outcome was assigned to `C=C(CCCC)C(=O)CC[C@H](OC(=O)c1cccnc1)c1cccc(OCCO)c1` in this test?
a: T

q: Which outcome was assigned to `C=CC[C@@H](OC(=O)Nc1ccc(OC)cc1)c1ccc(O)c2ccccc12` in this test?
a: F

q: Which outcome was assigned to `N[C@@H](Cc1ccccc1)Cn1cc(-c2ccccc2)nn1` in this test?
a: F

q: Which outcome was assigned to `C=CCOC(=O)[C@H]1[C@@H]2C(=O)O[C@@H](c3ccccc3)[C@@H](c3ccccc3)N2[C@@H](c2ccc(OCCOC(=O)[C@@H]3C[C@@H]4C(=O)N5CCC[C@H]5C(=O)N4[C@@H]3c3ccc(O)cc3)cc2)[C@]12C(=O)Nc1ccccc12` in this test?
a: F

q: Which outcome was assigned to `CCCNC(=O)[C@@H]1c2ccccc2C(=O)N(Cc2ccccc2)[C@H]1c1ccc(CO)cc1` in this test?
a: F

q: Which outcome was assigned to CC(C)c1ccc(NN2C(C(O)c3cccc(O)c3)C=CC3C(=O)N(c4ccccc4)C(=O)C32)cc1 (stereo not given) in this test?
a: T

q: Which outcome was assigned to `CC(C)NC(=O)[C@@H]1c2ccccc2C(=O)N(Cc2ccccc2Cl)[C@H]1c1ccc(CO)cc1` in this test?
a: F

q: Which outcome was assigned to `[N-]=[N+]=NCc1ccccc1C[C@]1(C(=O)O)N=C(c2ccc(OCCCO)cc2)O[C@H]1c1ccccc1CN=[N+]=[N-]` in this test?
a: T
